Form field: polymerase ribozyme fitness (log ratio) (one value per entry).
B1: TPR 5TU (parent)
chain: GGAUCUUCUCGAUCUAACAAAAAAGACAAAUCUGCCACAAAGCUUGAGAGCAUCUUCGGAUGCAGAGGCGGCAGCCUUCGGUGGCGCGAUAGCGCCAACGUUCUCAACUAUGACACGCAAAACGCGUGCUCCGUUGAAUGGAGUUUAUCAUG

Variants of: B1
assay method text: polymerase ribozyme fitness, log enrichment relative to wild type (log ratio); higher = more active; in vitro selection for triplet polymerase activity
Fewer inactive variants are shown than the library holds.
Could you respond with only the numeric value?

Qu. Find the measured polymerase ribozyme fitness (log ratio) of A40C C57U and report it.
Ans. 0.521

Qu. Find the measured polymerase ribozyme fitness (log ratio) of A60C A73U and report it.
Ans. -3.54

Qu. Find the measured polymerase ribozyme fitness (log ratio) of A26C A66C G81C G83C and report it.
Ans. -4.1

Qu. Find the measured polymerase ribozyme fitness (log ratio) of A20U C85G and report it.
Ans. -3.35

Qu. Find the measured polymerase ribozyme fitness (log ratio) of A89G G92C A97C C114U and report it.
Ans. -3.82

Qu. Find the measured polymerase ribozyme fitness (log ratio) of G86U C118U C125U and report it.
Ans. -4.01

Qu. Find the measured polymerase ribozyme fitness (log ratio) of A17C C35U G86A A122G and report it.
Ans. -1.01

Origin of measurements: the RNAGym collection of RNA variant scans (doi:10.1073/pnas.2313332121)
